B1: DNA-binding protein HU 1, P08821 (parent)
chain: MNKTELINAVAEASELSKKDATKAVDSVFDTILDALKNGDKIQLIGFGNFEVRERSARKGRNPQTGEEIEIPASKVPAFKPGKALKDAVAGK

- Variants of: B1
- run conditions: Bacillus subtilis (strain 168); pH 7; 48.6 °C; Thermal; CD; Sodium phosphate 5 mM; NaCl 0.2 M; reversible: yes; whole UniProt chain shown
observable: ddG of mutation (higher = less stable) (kcal/mol)

1) E15G :: -1.55
2) S27A :: -0.73
3) D34E N38K :: -0.45
4) E15G S27A D34E N38K I42V :: -2.98
